Data provenance: the supplement of paper PMC10724198

The entries below are paired with their reported protein stability index.
System: Saccharomyces cerevisiae
Assay Text: protein stability index of tFT-peptide fusion (C-terminal peptide) (PSI (0-1 scale)); higher = more stable (slower turnover)
Run Parameters: genetic background: cdc34-1; temperature: 37 C
Lab note: write the figure by itself, no unit.

biopolymer_sequence=GCSVSLCCVFVV value_kind="protein stability index" observed_result=0.489
biopolymer_sequence=VYVVLGTVYVTY value_kind="protein stability index" observed_result=0.195
biopolymer_sequence=LWRFFFVAFVGI value_kind="protein stability index" observed_result=0.446

Prompt: Please give the measured protein stability index for this sequence: VKVIILYKIIEV
Response: 0.353

Prompt: Please give the measured protein stability index for this sequence: FLYFLLQFLCSG
Response: 0.517

Prompt: Please give the measured protein stability index for this sequence: WYMYVRMASFLV
Response: 0.534

Prompt: Please give the measured protein stability index for this sequence: RPCRPLIAAFVF
Response: 0.531

Prompt: Please give the measured protein stability index for this sequence: LFIRSFLFFSHF
Response: 0.353

----------
System: Saccharomyces cerevisiae
Assay Text: protein stability index of tFT-peptide fusion (C-terminal peptide) (PSI (0-1 scale)); higher = more stable (slower turnover)
Run Parameters: genetic background: wild type; temperature: 30 C
Value Kind: protein stability index
Lab note: write the figure by itself, no unit.

Example sequences with recorded protein stability index:
biopolymer_sequence=PSGFPLRSYLPP value_kind="protein stability index" observed_result=0.707
biopolymer_sequence=CLWRGDEGRVPW value_kind="protein stability index" observed_result=0.714
biopolymer_sequence=DSFLFVPREVAD value_kind="protein stability index" observed_result=0.687

Prompt: Please give the measured protein stability index for this sequence: RGFGFAYVSEHI
Response: 0.708

----------
Test system: Saccharomyces cerevisiae
Assay Text: protein stability index of tFT-peptide fusion (C-terminal peptide) (PSI (0-1 scale)); higher = more stable (slower turnover)
Run Parameters: genetic background: wild type; temperature: 30 C
Value Kind: protein stability index
Lab note: write the figure by itself, no unit.

Example sequences with recorded protein stability index:
biopolymer_sequence=LFDYEAGEVMGG value_kind="protein stability index" observed_result=0.689
biopolymer_sequence=IVVWCGIRYSIR value_kind="protein stability index" observed_result=0.262
biopolymer_sequence=VLSLYWLIISRL value_kind="protein stability index" observed_result=0.42
biopolymer_sequence=CEVLVVVMCLWG value_kind="protein stability index" observed_result=0.217
biopolymer_sequence=LFFFVCYLATVK value_kind="protein stability index" observed_result=0.191

Prompt: Please give the measured protein stability index for this sequence: SRWMWFDWLRRA
Response: 0.295

Prompt: Please give the measured protein stability index for this sequence: WDPKISVFVLID
Response: 0.291

Prompt: Please give the measured protein stability index for this sequence: VLVSVSLRVCMV
Response: 0.108

Prompt: Please give the measured protein stability index for this sequence: VSCFIVSFWVFL
Response: 0.323

Prompt: Please give the measured protein stability index for this sequence: PPVLAPHLCFPP
Response: 0.675

Prompt: Please give the measured protein stability index for this sequence: SLIVLRSIAVLD
Response: 0.392

Prompt: Please give the measured protein stability index for this sequence: FFLLFCASFLRC
Response: 0.294

Prompt: Please give the measured protein stability index for this sequence: VGCHISAFSDLI
Response: 0.665

Prompt: Please give the measured protein stability index for this sequence: RMTFFGFTVKML
Response: 0.264

Prompt: Please give the measured protein stability index for this sequence: WRCLHLVYLFFH
Response: 0.173

Prompt: Please give the measured protein stability index for this sequence: LFPLLCLLLPSL
Response: 0.522

----------
Tested on: Saccharomyces cerevisiae
Assay Text: protein stability index of tFT-peptide fusion (C-terminal peptide) (PSI (0-1 scale)); higher = more stable (slower turnover)
Run Parameters: genetic background: das1 deletion; temperature: 30 C
The entries below are paired with their reported protein stability index.
Lab note: write the figure by itself, no unit.

Example sequences with recorded protein stability index:
biopolymer_sequence="VKKLVTDMLAKI [CFT2 C-terminal 12 aa]" value_kind="protein stability index" observed_result=0.696
biopolymer_sequence="YDENSKPKGTKE [FUN30 C-terminal 12 aa]" value_kind="protein stability index" observed_result=0.695
biopolymer_sequence="IPLTEFDLSDSK [YMR253C C-terminal 12 aa]" value_kind="protein stability index" observed_result=0.701

Prompt: Please give the measured protein stability index for this sequence: DNDIYNTISEVR [RAD9 C-terminal 12 aa]
Response: 0.697

Prompt: Please give the measured protein stability index for this sequence: RIEQNRPDDGVY [FMP16 C-terminal 12 aa]
Response: 0.682

Prompt: Please give the measured protein stability index for this sequence: PEGEAPEAFSMK [SEC14 C-terminal 12 aa]
Response: 0.707

Prompt: Please give the measured protein stability index for this sequence: TRGEATLRANYQ [YOR008W-B C-terminal 12 aa]
Response: 0.686

Prompt: Please give the measured protein stability index for this sequence: GNTENGTLKKKH [BSC5 C-terminal 12 aa]
Response: 0.685

Prompt: Please give the measured protein stability index for this sequence: LKFEPTQEIVES [ITR2 C-terminal 12 aa]
Response: 0.705

----------
System: Saccharomyces cerevisiae
Assay Text: protein stability index of tFT-peptide fusion (C-terminal peptide) (PSI (0-1 scale)); higher = more stable (slower turnover)
Run Parameters: genetic background: wild type; temperature: 30 C
The entries below are paired with their reported protein stability index.
Lab note: write the figure by itself, no unit.

Example sequences with recorded protein stability index:
biopolymer_sequence=PLLPSPPHSPTP observed_result=0.657
biopolymer_sequence=LFYYLFRYFFPP observed_result=0.548
biopolymer_sequence=WSPFSLISLSPP observed_result=0.725
biopolymer_sequence=PPTIPLRTLPTS observed_result=0.703
biopolymer_sequence=RGGVGWGVFRVS observed_result=0.679
biopolymer_sequence=RSHLLPPPRHQH observed_result=0.733
biopolymer_sequence=TIRKNKTDVISK observed_result=0.667
biopolymer_sequence=NSVPSPSRSLPP observed_result=0.666
biopolymer_sequence=PPALPPVPPYPL observed_result=0.673
biopolymer_sequence=SPHLPPLPDPSP observed_result=0.576

Prompt: Find protein stability index (Saccharomyces cerevisiae) for the entry SGLVCDGSSGGV
Response: 0.635

Prompt: Find protein stability index (Saccharomyces cerevisiae) for the entry NGGFIGVYICRT
Response: 0.73

Prompt: Find protein stability index (Saccharomyces cerevisiae) for the entry LHPSPQRHKTLQ
Response: 0.743

Prompt: Find protein stability index (Saccharomyces cerevisiae) for the entry ELGVGVLDRGCL
Response: 0.608

Prompt: Find protein stability index (Saccharomyces cerevisiae) for the entry EARRGTAGGQKK
Response: 0.626

Prompt: Find protein stability index (Saccharomyces cerevisiae) for the entry GEQLNWSREPWY
Response: 0.735

Prompt: Find protein stability index (Saccharomyces cerevisiae) for the entry LPRELFSQQRFL
Response: 0.713

Prompt: Find protein stability index (Saccharomyces cerevisiae) for the entry GTPHSKGVGFDH
Response: 0.655

----------
Tested on: Saccharomyces cerevisiae
Assay Text: protein stability index of tFT-peptide fusion (C-terminal peptide) (PSI (0-1 scale)); higher = more stable (slower turnover)
Run Parameters: genetic background: das1 deletion; temperature: 30 C
Value Kind: protein stability index
Lab note: write the figure by itself, no unit.

Example sequences with recorded protein stability index:
biopolymer_sequence=ALWFVLISILCL observed_result=0.312
biopolymer_sequence=FHSALIAIAAYV observed_result=0.201
biopolymer_sequence=RCTFSFSFPFVL observed_result=0.601
biopolymer_sequence=GFSFFFIFWFFF observed_result=0.35
biopolymer_sequence=FFLLFCASFLRC observed_result=0.317

Prompt: Find protein stability index (Saccharomyces cerevisiae) for the entry EVFLARKRSMVV
Response: 0.537

Prompt: Find protein stability index (Saccharomyces cerevisiae) for the entry LAGSSSIVVVFG
Response: 0.299

----------
Tested on: Saccharomyces cerevisiae
Assay Text: protein stability index of tFT-peptide fusion (C-terminal peptide) (PSI (0-1 scale)); higher = more stable (slower turnover)
Run Parameters: genetic background: wild type; temperature: 30 C
The entries below are paired with their reported protein stability index.
Lab note: write the figure by itself, no unit.

Example sequences with recorded protein stability index:
biopolymer_sequence=GFVVYLLLSYLF value_kind="protein stability index" observed_result=0.28
biopolymer_sequence=DFLSGRCIFFYV value_kind="protein stability index" observed_result=0.277
biopolymer_sequence=WGAHRVRVSRIL value_kind="protein stability index" observed_result=0.326

Prompt: Find protein stability index (Saccharomyces cerevisiae) for the entry FHSALIAIAAYV
Response: 0.202

----------
System: Saccharomyces cerevisiae
Assay Text: protein stability index of tFT-peptide fusion (C-terminal peptide) (PSI (0-1 scale)); higher = more stable (slower turnover)
Run Parameters: genetic background: wild type; temperature: 37 C
Label scheme, based on protein stability index: low end: < 0.3; middle: ≥ 0.3 and < 0.5; high end: ≥ 0.5

Solved cases below.
biopolymer_sequence=EGLDVRILIQVI tested_system="Saccharomyces cerevisiae" category="low end"
biopolymer_sequence=KKKEILVYIIQE tested_system="Saccharomyces cerevisiae" category="high end"
biopolymer_sequence=WSFYVVGRLLVN tested_system="Saccharomyces cerevisiae" category="low end"
biopolymer_sequence=RLIQPLPVQFLN tested_system="Saccharomyces cerevisiae" category="low end"
biopolymer_sequence=RFFKMREAIRIS tested_system="Saccharomyces cerevisiae" category=middle
biopolymer_sequence=GHSALWQVPRLM tested_system="Saccharomyces cerevisiae" category="high end"

Prompt: // return the class label for AGCFFVVLCGFF
Response: middle

Prompt: // return the class label for INHVIHAKLRFS
Response: low end

Prompt: // return the class label for VLLVRIFLCWVC
Response: low end

Prompt: // return the class label for DFWCIIVIFLFR
Response: middle

Prompt: // return the class label for PPVLAPHLCFPP
Response: high end

Prompt: // return the class label for EFEIALTLIRSI
Response: high end

Prompt: // return the class label for CEVLVVVMCLWG
Response: middle
